tested on: HCT-116 colon; experiment: NCI-60 one-dose screen, 48 h; settings: 10 µM unless noted
The panel holds about 83,000 compounds, 20% with a hit somewhere; the sample as a whole holds those more often. Activity calls are given as the source filed them. How the source made its calls: active means growth percent below 10; inactive means the rest.
Pick from active, inactive when you respond.

Task item: Field: outcome | Entry: `CN1CCN(Cc2ccc(NC(=O)c3ccc(C#N)c(C#Cc4cnc(N)c5ncccc45)c3)cc2C(F)(F)F)CC1`
Reply: active

Task item: Quick one: `O=Cc1ccc2nc(C(Cl)(Cl)Cl)ccc2c1`
Reply: inactive

Task item: Quick one: `CCOC(=O)c1ccc(NC(=O)NC2=NCCS2)cc1`
Reply: inactive

Task item: Quick one: `CCCNC(=S)N/N=C(\C)c1ccccn1`
Reply: active

Task item: Quick one: `Cc1ccc(O)c(Cc2ccccc2)c1`
Reply: inactive

Task item: Quick one: COc1ccc(C2CC(c3ccc(Nc4ccnc5cc(Cl)ccc45)cc3)=NN2c2ccccc2)cc1 (stereo not drawn)
Reply: inactive

Task item: Quick one: `Clc1ccc2c(c1)-n1cccc1C(c1ccc3ccccc3c1)=NC2`
Reply: inactive

Task item: Quick one: `O=C(/C=C/c1cccc([N+](=O)[O-])c1)c1ccc(Nc2nc(N3CCCCC3)nc(N3CCCCC3)n2)cc1`
Reply: active
